Values compiled from the RNAGym collection of RNA variant scans (doi:10.1038/ncomms11558).

exon inclusion enrichment score listing for selected variants.
B1: mRNA-splicing (parent)
chain: GAUCCAGAUCUAACUUGGGGUGGCUUUGUCUUCUUCUUUUGCCAAUUCCACUAAUUGUUUGGG

Variants of: B1
experiment-summary: exon inclusion enrichment score (log2 ratio to wild type); higher = more inclusion; FAS exon 6 minigene, HEK293
When you answer, write just the number.

   mutation_id  value_observed
0          A6C          -0.522
1         C14G          -0.135
2         A44G           0.314
3         A12G           0.431
4         U59A           -0.31
5         U11A            0.08
6         U39G           0.267
7          U9C            1.28

Requested field: exon inclusion enrichment score. Item: U29A
0.257

Requested field: exon inclusion enrichment score. Item: U58G
-0.27

Requested field: exon inclusion enrichment score. Item: G22U
-0.589

Requested field: exon inclusion enrichment score. Item: G7U
-2.07

Requested field: exon inclusion enrichment score. Item: U32G
0.176

Requested field: exon inclusion enrichment score. Item: U26A
0.39

Requested field: exon inclusion enrichment score. Item: U35G
0.167

Requested field: exon inclusion enrichment score. Item: G7C
-0.443
